Kindly supply the reported kinase still bound, per cent of control values for the records listed here.
target: UniProt:P37023; test: KINOMEscan competition binding; conditions: compound 10.0 µM
Sequence (P37023 whole entry, looked up): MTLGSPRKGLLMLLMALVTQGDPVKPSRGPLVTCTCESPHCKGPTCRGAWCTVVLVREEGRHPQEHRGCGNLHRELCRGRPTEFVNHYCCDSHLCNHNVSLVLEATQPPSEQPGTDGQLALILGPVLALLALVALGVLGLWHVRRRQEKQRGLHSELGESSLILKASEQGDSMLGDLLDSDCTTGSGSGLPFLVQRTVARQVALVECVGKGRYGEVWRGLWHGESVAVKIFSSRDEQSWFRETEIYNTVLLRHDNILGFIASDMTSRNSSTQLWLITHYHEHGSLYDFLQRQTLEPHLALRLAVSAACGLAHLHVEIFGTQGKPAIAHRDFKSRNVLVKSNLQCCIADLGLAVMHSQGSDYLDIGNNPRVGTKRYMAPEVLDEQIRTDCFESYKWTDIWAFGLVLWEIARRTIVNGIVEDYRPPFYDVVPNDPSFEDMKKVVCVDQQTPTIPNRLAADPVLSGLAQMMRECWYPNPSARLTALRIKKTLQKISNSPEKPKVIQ
Provide only the numeric value, understood in %.

Just so you know, measured kinase still bound, per cent of control for CS(=O)(=O)Nc1ccc(-c2cncc(/C=C3\SC(=N)NC3=O)c2)cc1 came out at 3.6

Just so you know, measured kinase still bound, per cent of control for COc1cc(N2CCN(C)CC2)ccc1Nc1ncc2c(n1)Nc1ccccc1NC2=O came out at 81

Just so you know, measured kinase still bound, per cent of control for O=C1NC(=O)/C(=C/c2c[nH]c(=O)c(-c3ccc(N4CCNCC4)nc3)c2)S1 came out at 100

* * *

tested on: PIK3CA (human), P42336 [E545K]; assay: KINOMEscan competition binding; conditions: compound 10.0 µM
Sequence (P42336 whole entry E545K, looked up): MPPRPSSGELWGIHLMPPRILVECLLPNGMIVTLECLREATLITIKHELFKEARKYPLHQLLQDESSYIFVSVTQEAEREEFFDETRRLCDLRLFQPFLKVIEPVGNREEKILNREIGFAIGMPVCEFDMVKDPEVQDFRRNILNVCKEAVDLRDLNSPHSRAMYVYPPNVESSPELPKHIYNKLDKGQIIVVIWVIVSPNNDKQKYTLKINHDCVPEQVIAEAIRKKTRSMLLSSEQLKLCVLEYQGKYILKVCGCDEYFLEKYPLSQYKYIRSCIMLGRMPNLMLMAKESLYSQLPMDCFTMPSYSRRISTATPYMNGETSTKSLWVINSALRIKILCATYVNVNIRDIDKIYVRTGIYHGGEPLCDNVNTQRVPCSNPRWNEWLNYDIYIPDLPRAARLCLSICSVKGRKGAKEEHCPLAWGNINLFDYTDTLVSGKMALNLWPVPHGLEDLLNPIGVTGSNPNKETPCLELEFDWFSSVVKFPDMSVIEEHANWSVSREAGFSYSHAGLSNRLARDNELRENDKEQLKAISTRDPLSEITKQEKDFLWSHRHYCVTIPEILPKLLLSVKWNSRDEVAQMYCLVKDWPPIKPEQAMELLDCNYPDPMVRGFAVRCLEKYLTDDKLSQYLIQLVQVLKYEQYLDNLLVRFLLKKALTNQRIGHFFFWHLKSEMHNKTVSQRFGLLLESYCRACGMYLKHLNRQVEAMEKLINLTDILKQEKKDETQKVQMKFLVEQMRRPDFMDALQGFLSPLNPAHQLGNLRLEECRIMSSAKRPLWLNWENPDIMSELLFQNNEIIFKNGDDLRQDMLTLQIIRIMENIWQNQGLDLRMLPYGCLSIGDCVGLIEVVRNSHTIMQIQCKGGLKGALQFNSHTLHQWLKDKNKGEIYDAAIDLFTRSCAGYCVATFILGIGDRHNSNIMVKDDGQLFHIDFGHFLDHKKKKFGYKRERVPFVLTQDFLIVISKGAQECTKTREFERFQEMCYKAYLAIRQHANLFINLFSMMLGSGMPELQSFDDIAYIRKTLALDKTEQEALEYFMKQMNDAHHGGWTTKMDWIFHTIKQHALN
measurement_label: kinase still bound, per cent of control (%)
Provide only the numeric value, understood in %.

Just so you know, measured kinase still bound, per cent of control for CC(=O)Nc1ccc(-c2ccc(/C=C3\SC(=N)NC3=O)o2)c(O)c1 came out at 25

Just so you know, measured kinase still bound, per cent of control for CS(=O)(=O)Nc1ccc(-c2ccc(/C=C3\SC(=N)NC3=O)o2)c(O)c1 came out at 32

Just so you know, measured kinase still bound, per cent of control for N=C1NC(=O)/C(=C/c2ccc(-c3ccccc3O)o2)S1 came out at 21

* * *

target: RIOK1 (human) (UniProt Q9BRS2); assay: KINOMEscan competition binding; conditions: compound 10.0 µM
Sequence (Q9BRS2 whole entry, looked up): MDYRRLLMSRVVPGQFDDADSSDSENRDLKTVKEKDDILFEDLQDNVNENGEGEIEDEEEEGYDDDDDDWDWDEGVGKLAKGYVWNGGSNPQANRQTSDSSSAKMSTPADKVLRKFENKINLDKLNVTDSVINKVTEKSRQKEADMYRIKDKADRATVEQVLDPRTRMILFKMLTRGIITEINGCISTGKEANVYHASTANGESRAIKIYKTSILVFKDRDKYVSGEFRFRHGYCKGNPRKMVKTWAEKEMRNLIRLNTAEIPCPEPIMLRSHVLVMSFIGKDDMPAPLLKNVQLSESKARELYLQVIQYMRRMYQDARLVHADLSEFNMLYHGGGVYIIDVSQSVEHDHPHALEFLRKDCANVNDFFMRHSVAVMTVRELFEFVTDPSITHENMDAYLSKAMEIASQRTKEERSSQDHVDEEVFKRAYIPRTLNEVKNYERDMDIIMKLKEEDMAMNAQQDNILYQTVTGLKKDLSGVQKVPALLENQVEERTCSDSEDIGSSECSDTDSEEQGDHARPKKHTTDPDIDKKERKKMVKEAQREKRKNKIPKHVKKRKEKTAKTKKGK
Kindly supply the reported kinase still bound, per cent of control values for the records listed here.
Provide only the numeric value, understood in %.

Just so you know, measured kinase still bound, per cent of control for N=C1NC(=O)/C(=C/c2ccc(-c3cncc4ccccc34)o2)S1 came out at 1.4

Just so you know, measured kinase still bound, per cent of control for CN1C(=O)c2ccccc2N(C)c2nc(Nc3ccc(N4CCC(O)CC4)cc3)ncc21 came out at 90

Just so you know, measured kinase still bound, per cent of control for COc1cc(N2CCN(C)CC2)ccc1Nc1ncc2c(n1)N(C)c1sccc1C(=O)N2C came out at 71

Just so you know, measured kinase still bound, per cent of control for NS(=O)(=O)c1ccc(-c2ccc(/C=C3\C(=O)Nc4ccccc43)o2)cc1 came out at 11

Just so you know, measured kinase still bound, per cent of control for CN1C(=O)c2ccccc2N(C)c2nc(NS(=O)(=O)c3ccc(N)cc3)ncc21 came out at 66

Just so you know, measured kinase still bound, per cent of control for N=C1NC(=O)/C(=C/c2ccc(-c3cnc4ccccc4c3)o2)S1 came out at 15

Just so you know, measured kinase still bound, per cent of control for COc1cc(N2CCN(C)CC2)ccc1Nc1ncc2c(n1)N1CCC[C@H]1CC(=O)N2 came out at 21

* * *

target: STK36 (human) (UniProt Q9NRP7); assay: KINOMEscan competition binding; settings: compound 10.0 µM
Sequence (Q9NRP7 whole entry, looked up): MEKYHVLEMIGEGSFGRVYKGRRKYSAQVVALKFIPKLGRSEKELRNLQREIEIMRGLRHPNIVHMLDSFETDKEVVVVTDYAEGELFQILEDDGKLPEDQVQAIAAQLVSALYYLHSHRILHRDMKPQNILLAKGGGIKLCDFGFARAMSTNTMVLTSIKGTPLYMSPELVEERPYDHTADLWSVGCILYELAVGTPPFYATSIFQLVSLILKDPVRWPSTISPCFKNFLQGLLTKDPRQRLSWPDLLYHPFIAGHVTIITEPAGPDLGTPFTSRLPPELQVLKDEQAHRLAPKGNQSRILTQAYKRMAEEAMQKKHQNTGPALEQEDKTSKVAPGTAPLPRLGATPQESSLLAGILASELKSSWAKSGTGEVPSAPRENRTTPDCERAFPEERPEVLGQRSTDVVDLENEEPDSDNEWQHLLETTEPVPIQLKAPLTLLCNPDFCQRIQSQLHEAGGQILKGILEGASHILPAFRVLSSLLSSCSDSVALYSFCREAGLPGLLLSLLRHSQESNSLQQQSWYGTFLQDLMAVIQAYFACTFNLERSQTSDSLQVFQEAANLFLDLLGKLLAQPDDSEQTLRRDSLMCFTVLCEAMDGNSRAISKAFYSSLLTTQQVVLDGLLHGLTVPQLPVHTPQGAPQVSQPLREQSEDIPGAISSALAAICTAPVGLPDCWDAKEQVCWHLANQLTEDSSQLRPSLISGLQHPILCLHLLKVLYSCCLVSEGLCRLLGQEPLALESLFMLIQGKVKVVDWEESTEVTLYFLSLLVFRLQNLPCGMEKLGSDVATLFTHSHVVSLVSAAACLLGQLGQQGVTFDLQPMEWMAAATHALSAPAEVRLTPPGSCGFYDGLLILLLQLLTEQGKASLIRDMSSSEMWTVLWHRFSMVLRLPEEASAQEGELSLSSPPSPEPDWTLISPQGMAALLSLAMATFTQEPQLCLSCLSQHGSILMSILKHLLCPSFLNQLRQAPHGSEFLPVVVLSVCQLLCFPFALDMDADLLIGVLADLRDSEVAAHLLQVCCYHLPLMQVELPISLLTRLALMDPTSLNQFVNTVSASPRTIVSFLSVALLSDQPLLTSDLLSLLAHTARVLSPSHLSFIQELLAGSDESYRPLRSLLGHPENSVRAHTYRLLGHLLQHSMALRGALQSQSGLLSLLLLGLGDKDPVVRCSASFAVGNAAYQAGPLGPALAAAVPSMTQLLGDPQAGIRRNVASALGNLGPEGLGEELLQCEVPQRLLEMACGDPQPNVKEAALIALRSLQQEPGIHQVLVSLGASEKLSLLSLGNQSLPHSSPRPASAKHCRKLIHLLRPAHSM
Kindly supply the reported kinase still bound, per cent of control values for the records listed here.
Provide only the numeric value, understood in %.

kinase still bound, per cent of control for STK36 (human) (UniProt Q9NRP7) with input CN1CCN(c2ccc(C(=O)Nc3ncc4c(n3)N(C)c3ccccc3C(=O)N4C)cc2)CC1 equals 100

kinase still bound, per cent of control for STK36 (human) (UniProt Q9NRP7) with input COc1cc(N2CCC(O)CC2)ccc1Nc1ncc2c(n1)N1CCc3cccc(c31)C(=O)N2C equals 100

kinase still bound, per cent of control for STK36 (human) (UniProt Q9NRP7) with input CS(=O)(=O)Nc1ccc(-c2ncc(/C=C3\SC(=N)NC3=O)s2)cc1 equals 20

kinase still bound, per cent of control for STK36 (human) (UniProt Q9NRP7) with input CN1C(=O)c2ccccc2N(C)c2nc(NS(=O)(=O)c3ccc(N)cc3)ncc21 equals 100

kinase still bound, per cent of control for STK36 (human) (UniProt Q9NRP7) with input COc1cc(N2CCN(C)CC2)ccc1Nc1ncc2c(n1)Nc1ccccc1NC2=O equals 64
